test target: human TPO receptor (Homo sapiens, UniProt P40238)
Sequence (P40238 26-635): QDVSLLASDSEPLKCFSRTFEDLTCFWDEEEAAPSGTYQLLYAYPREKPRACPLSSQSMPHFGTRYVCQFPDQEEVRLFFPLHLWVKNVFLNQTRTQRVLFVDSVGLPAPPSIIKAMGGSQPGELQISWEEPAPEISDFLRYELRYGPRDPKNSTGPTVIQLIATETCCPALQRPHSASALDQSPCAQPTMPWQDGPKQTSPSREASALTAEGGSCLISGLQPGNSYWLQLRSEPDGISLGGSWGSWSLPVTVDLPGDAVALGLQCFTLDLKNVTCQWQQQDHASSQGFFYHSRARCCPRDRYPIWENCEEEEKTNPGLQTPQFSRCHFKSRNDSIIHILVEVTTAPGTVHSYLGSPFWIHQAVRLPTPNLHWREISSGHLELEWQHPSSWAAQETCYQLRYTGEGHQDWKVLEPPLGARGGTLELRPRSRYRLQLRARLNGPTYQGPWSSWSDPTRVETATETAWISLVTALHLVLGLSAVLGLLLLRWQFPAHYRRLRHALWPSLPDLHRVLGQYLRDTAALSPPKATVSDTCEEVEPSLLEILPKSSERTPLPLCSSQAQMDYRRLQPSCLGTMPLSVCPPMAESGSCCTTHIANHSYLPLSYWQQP
experimental details: Thrombopoietic activity: proliferation of TPO dependent BaF/hTPOR cells (WST-1)
test conditions: BaF/hTPOR cell line (BaF-B03 with human TPO receptor), without IL-3; 20 hours incubation + 4 hours WST-1, absorbance 450 nm; ED50 = half concentration of the concentration showing maximum thrombopoietic activity
pEC50: −log10 of the molar value.
quantity measured: pEC50

O=C(O)c1ccc2c(c1)CCC(C(=O)Nc1nc(-c3ccc(Cl)c(Cl)c3)cs1)C2 (stereo not drawn) [Compound A-2]: 6.42

1: O=C(Nc1nc(-c2cccc(C(F)(F)F)c2F)cs1)c1ccc2c(c1)CC(C(=O)O)C2 [Compound D-3]
2: O=C(Nc1nc(-c2cccc(C3CCCCC3)c2F)cs1)c1ccc2c(c1)CCC(C(=O)O)C2 (stereo not drawn) [Compound B-12]
Input: Compare reported pEC50 values for 1 and 2 . Which is lower? Answer = label.
Output: 1
(1: 6.43, 2: 7.13)
